# system.name: FRMPD4, Q14CM0
# Sequence (Q14CM0 67-160): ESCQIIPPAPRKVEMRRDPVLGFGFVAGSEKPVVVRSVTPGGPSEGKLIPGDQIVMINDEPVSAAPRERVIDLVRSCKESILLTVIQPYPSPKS
# method.notes: holdup assay
# Set-up: key: below the threshold = too weak to quantify, mostly under pKd 3.1 to 4
# test.conditions: plain residues with an end cap or a label only (N-terminal biotin on a linker: ttds)
measure: pKd

Worked examples, 4 binders total:
SGGKRKETLV [NET1, Q7Z628] = 3.65
GARVSKETPL [MAPK12, P53778] = 4.1
KQVVPFSSSV [GDA, Q9Y2T3] = below the threshold
DLDEEEDTHL [PODXL, O00592] = 4.7

Data request: Could you share which pKd value was measured for PPRQRSETQV [HPV82-E6, Q9IR59] ?
Data returned: below the threshold

Data request: Could you share which pKd value was measured for NPDALPETLV [ARHGAP6, O43182] ?
Data returned: below the threshold

Data request: Could you share which pKd value was measured for PSRDRKETSI [RALBP1, Q15311] ?
Data returned: below the threshold

Data request: Could you share which pKd value was measured for QRPYRRESEI [KCNJ12, Q14500] ?
Data returned: below the threshold
